target: CaSho1; assay: SPOT peptide array binding signal intensity (averaged, normalized) (arbitrary units (background-subtracted, floor 0; scale differs between SH3 domains)); higher = stronger binding of the SH3 domain to the peptide
We use 1000 as the dividing line for SPOT peptide array binding signal intensity: on or above the line is Y, below is N.

Input line: Assess whether reported SPOT peptide array binding signal intensity for LRIKRKPVQTFFEFI sits at 1000 or higher.
Output line: Y

Input line: Same lookup for NNQRRKPLLLNIGDH , please.
Output line: N

Input line: Same lookup for NFFRKKLGIPRKLKR , please.
Output line: N

Input line: Queued: TEVPIPRRPPPPQAA
Output line: N

Input line: Now give it for YVRRRPRVRLEPLLS too.
Output line: N

Input line: Follow-up entry: NNNKMRPHLPPLSSG
Output line: Y
